target: intracellular phosphorylation of EGFR (Tyr1068) in PC-9 cells (Homo sapiens, UniProt P00533, DEL746-750); assay: PC-9 pEGFR AlphaLISA assay; conditions: 4 hours incubation, read-out: Phos EGFR PC9 IC50
Sequence (P00533 with tags, fused parts or gaps DEL746-750): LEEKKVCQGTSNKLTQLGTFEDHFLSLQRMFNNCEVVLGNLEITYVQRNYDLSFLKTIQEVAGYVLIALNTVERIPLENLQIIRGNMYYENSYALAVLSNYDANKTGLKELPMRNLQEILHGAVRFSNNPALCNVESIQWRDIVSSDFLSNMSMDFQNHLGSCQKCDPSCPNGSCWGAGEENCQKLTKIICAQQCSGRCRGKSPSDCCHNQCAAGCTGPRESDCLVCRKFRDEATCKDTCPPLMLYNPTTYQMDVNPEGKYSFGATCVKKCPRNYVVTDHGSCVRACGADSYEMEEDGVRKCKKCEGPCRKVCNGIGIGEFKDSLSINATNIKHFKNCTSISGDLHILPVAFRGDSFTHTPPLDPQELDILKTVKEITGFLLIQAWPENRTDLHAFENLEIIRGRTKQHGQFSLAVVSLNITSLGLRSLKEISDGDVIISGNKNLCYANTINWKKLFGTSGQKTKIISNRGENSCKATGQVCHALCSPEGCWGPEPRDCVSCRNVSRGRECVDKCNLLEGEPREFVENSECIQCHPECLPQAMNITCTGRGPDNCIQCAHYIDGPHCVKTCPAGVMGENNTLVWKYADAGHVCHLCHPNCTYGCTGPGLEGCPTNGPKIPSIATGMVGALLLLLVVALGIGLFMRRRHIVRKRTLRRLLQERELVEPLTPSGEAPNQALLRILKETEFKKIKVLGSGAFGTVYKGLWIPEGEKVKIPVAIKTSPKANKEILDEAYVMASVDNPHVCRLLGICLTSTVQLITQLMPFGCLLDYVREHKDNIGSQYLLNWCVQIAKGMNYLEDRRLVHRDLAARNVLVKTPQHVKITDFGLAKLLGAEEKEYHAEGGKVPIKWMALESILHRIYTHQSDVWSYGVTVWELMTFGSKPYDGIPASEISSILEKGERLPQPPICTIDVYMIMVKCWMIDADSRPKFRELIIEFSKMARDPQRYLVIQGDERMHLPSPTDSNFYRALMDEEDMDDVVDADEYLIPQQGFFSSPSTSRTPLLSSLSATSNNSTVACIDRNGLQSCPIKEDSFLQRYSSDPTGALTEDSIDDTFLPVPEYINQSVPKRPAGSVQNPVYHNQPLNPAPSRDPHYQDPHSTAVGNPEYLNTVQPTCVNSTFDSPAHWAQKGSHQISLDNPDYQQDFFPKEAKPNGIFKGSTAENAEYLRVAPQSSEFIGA
This listing pairs molecules with measured IC50.

In the examples that follow, each entry is paired with its recorded IC50.
CC[C@H](Oc1cc(-c2cnn(C)c2)cc2ncnc(Nc3ccc4ncsc4c3F)c12)C1CN(C)C1 (single isomer, unassigned) [Example 389] = 10.1 to 50 nM
Cn1cc(-c2cc(OCC(=O)N3CCCCC3)c3c(Nc4ccc5ncsc5c4)ncnc3c2)cn1 = ≤ 10 nM
C[C@H](Oc1cc(-c2cnn(C)c2)cc2ncnc(Nc3ccc4ncsc4c3F)c12)C(=O)N1CCOCC1 (single isomer, unassigned) = ≤ 10 nM

input: May I ask what IC50 has been recorded for COc1nn(C)cc1-c1cc(O[C@@H]2CCN(C)C[C@H]2F)c2c(Nc3ccc4ncsc4c3)ncnc2c1 (single isomer, unassigned) [Example 359] ?
output: 10.1 to 50 nM
